These measurements were taken from ChEMBL document CHEMBL4513135.

# System: Escherichia coli
# CONDITION_INFO: Concentration 32 ug.mL-1; ASSAY_TEST Inhibition of Bacterial Growth; detection method Absorption (OD600); MEDIA CAMHB; plate type 384well; NBS; CORNING #3640; time 18 hr
# Description: Antibacterial activity against Escherichia coli ATCC 25922 (CO-ADD:GN_001); MIC in CAMBH media using NBS plates, by OD(600)
Results with a measured potency or affinity are listed apart.
MEASUREMENT_LABEL: Inhibition (%)
Write it as a number; the unit % goes unstated.

Cl.ClCCCCN1CCCCC1 :: -1.96
CNC(=O)NC1(C(=O)O)CC1c1ccccc1 (stereo not given) :: 8.23
Cc1ccc2nc(Cl)c(/C=N/NCc3ccccc3)cc2c1 :: 22.89
C#CCNc1[nH]c2ccc(O)cc2c1C#N :: -3.92
C#CCN(C)c1nc(NCC2CCN(Cc3ccccc3)CC2)c(C#N)c(-c2ccccc2)c1C#N :: -2.4
C#CCN1CCc2nc3nc(N4CCCC4)c(C#N)cc3c(N)c2C1 :: -2.2
C/C(Cc1ccccc1)=N\NC(=O)c1c[nH]c2ccccc12 :: 14.48
Cc1nn(-c2ccccc2)c2nc(C)n3nc(-c4ccccc4)nc3c12 :: 8.31

Ask: I'm curious: which Inhibition was measured for Cl.OCC1CCN(Cc2ccccc2)CC1 tested on Escherichia coli?
Result: 15.91

Ask: Report Inhibition for CN1C/C(=C\Br)n2c1c(C#N)cc(C#N)c2=O tested on Escherichia coli.
Result: -11.76

Ask: Form field - read-out: Inhibition; system: Escherichia coli; submitted item: COc1nc2nc3c(c(N)c2cc1C#N)CN(Cc1ccccc1)CC3
Result: 4.83

Ask: Short answer please: Inhibition, Escherichia coli, entry N#CCC(=C(C#N)C#N)c1ccccc1
Result: 4.41

Ask: Please provide the recorded Inhibition for O=C(N/N=C/Cc1ccccc1)c1cc2ccccc2n1Cc1ccccc1 , tested on Escherichia coli.
Result: 7.44

Ask: Provide the documented Inhibition with Escherichia coli as the system for Nc1c2c(nc3c1C(c1ccc(O)cc1)c1c(ccc4ccccc14)O3)CCCC2 (stereo not given)
Result: 9.35

Ask: Lab note: need Inhibition with Escherichia coli for entry C1CNCCNCCNCCNC1 , please look it up.
Result: 9.31

Ask: Hello, I am looking for reported Inhibition with Escherichia coli for COc1cccc(C2C(C#N)=C(N)Oc3c2ccc2ccccc32)c1 (stereo not given) . Could you help?
Result: -8.01

###

# Tested on: Staphylococcus aureus
# CONDITION_INFO: Concentration 32 ug.mL-1; ASSAY_TEST Inhibition of Bacterial Growth; detection method Absorption (OD600); MEDIA CAMHB; plate type 384well; NBS; CORNING #3640; time 18 hr
# Description: Antibacterial activity against Staphylococcus aureus MRSA ATCC 43300 (CO-ADD:GP_020); MIC in CAMBH media, using NBS plates, by OD(600)
Entries with a potency or affinity are not part of this list.
// Not met strictly below 10% in Inhibition; Met otherwise

Worked examples follow.
Cc1nc(NO)c2c(C)nn(-c3ccccc3)c2n1 :: Not met
CCOC(=O)C1=C(C)Oc2nc3c(c(N)c2C1c1ccc(O)c(OC)c1)CCC3 (centres undefined) :: Not met
CCOC(=O)C1=C(C)Oc2nc3c(c(N)c2C1c1nccn1C)CCC3 (centres undefined) :: Not met
Cc1[nH]nc2c1C(c1ccc(O)c(O)c1)C(C#N)=C(N)O2 (centres undefined) :: Not met

Ask: Quick check, Inhibition >= 10%? O=C(COc1ccc2ccccc2c1)N/N=C/c1c[nH]c2ccccc12
Result: Not met

Ask: Does the reported Inhibition for CC(=O)Oc1ccc(C=C2N=C(c3ccccc3)OC2=O)cc1 fall at or above the 10% mark?
Result: Met

Ask: Does CN(N=O)C(=O)NC1(C(=O)O)CC1c1ccccc1 (centres undefined) have a reported Inhibition of at least 10%?
Result: Met

###

# Tested on: Escherichia coli
# CONDITION_INFO: Concentration 32 ug.mL-1; ASSAY_TEST Inhibition of Bacterial Growth; detection method Absorption (OD600); MEDIA CAMHB; plate type 384well; NBS; CORNING #3640; time 18 hr
Results with a measured potency or affinity are listed apart.
# Inhibition per entry
# value in %; strip the unit string

Example molecules with recorded Inhibition:
Cc1ccc(C(O)SNNc2ncnc3c2c(C)nn3-c2ccccc2)cc1 (stereo not drawn) :: 11.97
CCCC(C)NNC(=O)Cc1c[nH]c2ccccc12 (stereo not drawn) :: -9.25
O=C1C=C(Nc2ccccc2)C(=O)N1c1ccccc1 :: 4.55
C=C1CN(Cc2ccccc2)c2c(C#N)c(-c3ccccc3)c(C#N)c(=N)n21 :: -0.81
COc1ccc2cc(C3C(C(C)=O)=C(C)Oc4nc5c(c(N)c43)CCCCC5)c(Cl)nc2c1 (stereo not drawn) :: 15.71

Ask: Entry N#CC1(Br)C(=NBr)Oc2ccc3ccccc3c2C1c1cccc([N+](=O)[O-])c1 (stereo not drawn) : reported Inhibition = ?
Result: -20.79

Ask: Need Inhibition, item COc1ccc(-c2cc(-c3cc4ccccc4nc3Cl)cc(=O)[nH]2)cc1
Result: -12.6

Ask: For the molecule CC1=C(C(=O)N2[C@@H]3C[C@H]4CCC3(CS2(=O)=O)C4(C)C)C(c2ccccc2)C(C#N)=C(N)O1 (stereo partly drawn) , what Inhibition is on record?
Result: 15

Ask: I am curious: what Inhibition value has been reported for COc1ccc2cc(C=O)c(Cl)nc2c1 ?
Result: 25.34

Ask: Param item = N#CC1=C(Cl)Oc2c(ccc3ccccc23)C1c1ccccc1 (stereo not drawn) ; retrieve measured Inhibition.
Result: -36.62

Ask: Entry N#CC1(Br)C(=NBr)Oc2ccc3ccccc3c2C1c1ccccc1[N+](=O)[O-] (stereo not drawn) : reported Inhibition = ?
Result: -25.63

Ask: Entry O=C(NNCc1ccco1)c1cc2ccccc2[nH]1 : reported Inhibition = ?
Result: -6.94

Ask: Param item = C#CCNc1nc(Cl)c(C#N)c(-c2ccccc2)c1C#N ; retrieve measured Inhibition.
Result: 10.8

Ask: # Inhibition lookup, item O=C1SC(SCc2ccccc2)=NC1=Cc1cccc(OCc2ccccc2)c1
Result: 7.89

Ask: Request the reported Inhibition associated with C#CCNc1ncc(C#N)c(N)n1
Result: -16.66

Ask: Which Inhibition is reported for this molecule? C#CCN(C)Cc1cc2cc(OCc3ccccc3)ccc2n1C.O=C(O)C(=O)O
Result: -11.51

Ask: Would you kindly share the measured Inhibition for O=C(N/N=C/c1c[nH]c2ccccc12)c1cc2ccccc2[nH]1 ?
Result: 9.94

Ask: Entry under review: N#CC1(Br)C(=N)Oc2ccc3ccccc3c2C1c1cccc([N+](=O)[O-])c1 (stereo not drawn) . Reported Inhibition?
Result: -22.9

Ask: Suppose we examine the molecule COc1nc2ccc(C)cc2cc1C=O ; what Inhibition value has been reported?
Result: 18.17

Ask: Param item = N#CC1=C(N)Oc2ccc3ccccc3c2C1c1ccc(O)cc1 (stereo not drawn) ; retrieve measured Inhibition.
Result: -6.77

###

# System: Staphylococcus aureus
# CONDITION_INFO: Concentration 32 ug.mL-1; ASSAY_TEST Inhibition of Bacterial Growth; detection method Absorption (OD600); MEDIA CAMHB; plate type 384well; NBS; CORNING #3640; time 18 hr
Results with a measured potency or affinity are listed apart.
Inhibition strictly under 7% means true (1); at 7% or over means false (0).

N#Cc1cc(C#N)c(NCc2ccccc2)nc1N :: false (0)
O=C(N/N=C/c1c[nH]c2ccccc12)C(c1ccccc1)c1ccccc1 :: false (0)

Ask: Please state whether Inhibition is below 7% for COc1ccc(-c2cc(-c3cc4ccc(OC)cc4nc3Cl)cc(=O)[nH]2)cc1
Result: false (0)

Ask: Consider O=C(COc1ccc2ccccc2c1)NNCc1c[nH]c2ccccc12 . Does its Inhibition lie strictly below 7%?
Result: true (1)

Ask: Does C#CCNc1nc(Cl)c(C#N)c(-c2ccccc2)c1C#N have Inhibition strictly under 7%?
Result: true (1)

Ask: Could you please tell me whether Inhibition recorded for C#CCNc1nc(OC)c(C#N)c(-c2ccccc2)c1C#N is less than 7%?
Result: false (0)

Ask: Regarding NNC(=O)CCc1c[nH]c2ccccc12 , kindly confirm whether its Inhibition is beneath 7%.
Result: true (1)

Ask: Could you please tell me whether Inhibition recorded for CC(=O)NCCc1ccccc1 is less than 7%?
Result: false (0)

###

# System: Escherichia coli
# CONDITION_INFO: Concentration 32 ug.mL-1; ASSAY_TEST Inhibition of Bacterial Growth; detection method Absorption (OD600); MEDIA CAMHB; plate type 384well; NBS; CORNING #3640; time 18 hr
Measured potencies and affinities stand elsewhere.
MEASUREMENT_LABEL: Inhibition (%)
Could you give me the number in %? Just the number is fine.

Examples with their reported Inhibition follow.
Cc1ccc(CNNC(=O)c2c[nH]c3ccccc23)cc1 :: -3.7
Cc1[nH]c2ccc(OCc3ccccc3)cc2c1C(=O)NN :: -5.77
O=C(O)n1ccc2ccccc21 :: 9.43

Ask: Query the reported Inhibition for Escherichia coli; item: Br.C#CCNCC
Result: 18.7

Ask: Inhibition of CCOC(=O)/C(C#N)=C\c1ccc([N+](=O)[O-])cc1 on Escherichia coli?
Result: 19.98

Ask: Form: Entry = COc1ccc(C2C(C#N)=C(N)Oc3c2ccc2ccccc32)c(OC)c1 (configuration not stated) | System = Escherichia coli | Inhibition = ____
Result: 0.79

Ask: Query for Escherichia coli: what Inhibition does the record show for CCOc1nc(N)c(C#N)c(-c2ccccc2)c1C#N ?
Result: -9.76
